Each entry below carries its reported NET, percent of control-specific binding.
- Experimental system: norepinephrine transporter (NET) (Homo sapiens, UniProt P23975)
- Construct: host or cells: CHO cells (membrane preparation)
- Sequence (P23975 whole entry): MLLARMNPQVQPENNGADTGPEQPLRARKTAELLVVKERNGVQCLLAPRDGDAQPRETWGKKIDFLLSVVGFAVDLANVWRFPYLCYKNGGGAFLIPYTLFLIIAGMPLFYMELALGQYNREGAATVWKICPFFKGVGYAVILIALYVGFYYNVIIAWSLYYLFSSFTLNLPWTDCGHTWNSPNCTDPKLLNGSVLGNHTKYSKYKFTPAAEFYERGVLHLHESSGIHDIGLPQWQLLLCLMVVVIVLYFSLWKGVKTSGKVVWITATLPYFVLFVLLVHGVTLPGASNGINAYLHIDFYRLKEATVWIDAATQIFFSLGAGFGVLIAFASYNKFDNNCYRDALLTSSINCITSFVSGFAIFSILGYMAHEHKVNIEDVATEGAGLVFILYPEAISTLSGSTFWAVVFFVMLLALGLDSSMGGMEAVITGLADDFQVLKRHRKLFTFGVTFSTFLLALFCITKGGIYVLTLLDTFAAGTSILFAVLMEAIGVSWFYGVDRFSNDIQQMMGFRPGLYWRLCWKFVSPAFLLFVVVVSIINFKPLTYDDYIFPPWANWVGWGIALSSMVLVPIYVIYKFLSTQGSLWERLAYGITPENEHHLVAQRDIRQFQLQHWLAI
- Experiment description: Eurofins Cerep competition binding assay at norepinephrine transporter
- Settings: 10 μM test ligand; [3H]nisoxetine; recombinant transporter in CHO cells
Readout type: NET, percent of control-specific binding (%)

[[record]]
molecule = "CCOc1c(OC)cc(CCN)cc1OC [escaline]"
experimental_system = "norepinephrine transporter (NET) (Homo sapiens, UniProt P23975)"
readout_type = "NET, percent of control-specific binding"
recorded_result = 6

[[record]]
molecule = "COc1cc(CC(C)N)c(OC)cc1Br (stereo not shown) [DOB, reference compound]"
experimental_system = "norepinephrine transporter (NET) (Homo sapiens, UniProt P23975)"
readout_type = "NET, percent of control-specific binding"
recorded_result = 6

[[record]]
molecule = "COc1cc(CCN)c(OC)cc1Br [2C-B, reference compound]"
experimental_system = "norepinephrine transporter (NET) (Homo sapiens, UniProt P23975)"
readout_type = "NET, percent of control-specific binding"
recorded_result = 13

[[record]]
molecule = "CNC(C)Cc1ccc2c(c1)OCO2 (stereo not shown) [MDMA, reference compound]"
experimental_system = "norepinephrine transporter (NET) (Homo sapiens, UniProt P23975)"
readout_type = "NET, percent of control-specific binding"
recorded_result = 3


----------
Each entry below carries its reported EC50.
- Experimental system: 5-HT1A receptor (Homo sapiens)
- Construct: purchased Perkin Elmer 6110501400UA
- Sequence (P08908 whole entry): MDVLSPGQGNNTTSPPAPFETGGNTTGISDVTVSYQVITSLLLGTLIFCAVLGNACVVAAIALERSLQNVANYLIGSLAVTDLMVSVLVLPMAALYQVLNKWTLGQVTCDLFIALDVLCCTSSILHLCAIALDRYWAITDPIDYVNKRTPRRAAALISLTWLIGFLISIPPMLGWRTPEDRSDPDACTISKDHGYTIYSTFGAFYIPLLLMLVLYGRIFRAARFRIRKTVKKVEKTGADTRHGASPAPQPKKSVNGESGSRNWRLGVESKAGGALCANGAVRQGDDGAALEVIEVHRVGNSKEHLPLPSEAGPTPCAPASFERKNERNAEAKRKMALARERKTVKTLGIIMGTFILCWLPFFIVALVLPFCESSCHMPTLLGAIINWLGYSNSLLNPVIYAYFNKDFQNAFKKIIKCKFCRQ
- Experiment description: Functional 5-HT1A receptor cAMP assay in CHO-K1/5-HT1A/Gα15 cells
- Type: cell-based
Readout type: EC50 (µM)

[[record]]
chemical_structure = "Brc1cc2c(cc1CCC1=NCCO1)OCO2"
reported_relation = "="
recorded_result = 130

[[record]]
chemical_structure = "OCCNCCCc1cc2c(cc1Br)OCO2"
reported_relation = "="
recorded_result = 22.9

[[record]]
chemical_structure = "CCN(CC)C/C=C/c1ccc2c(c1)OCO2"
reported_relation = ">"
recorded_result = 1000

[[record]]
chemical_structure = "COc1cc2c(cc1CCCN1CCCC1)OCO2"
reported_relation = "="
recorded_result = 116

[[record]]
chemical_structure = "COc1cc2c(cc1CCC(=O)N1CCCC1)OCO2"
reported_relation = "="
recorded_result = 10

[[record]]
chemical_structure = "C/C(=C\\c1ccc2c(c1)OCO2)CN1CCCC1"
reported_relation = "="
recorded_result = 40.1


----------
- Experimental system: MT1 receptor (Homo sapiens)
- Construct: host or cells: CHO cells (membrane preparation)
- Experiment description: Eurofins Cerep competition binding assay at MT1 receptor
- Settings: 10 μM test ligand; [125I]2-iodomelatonin; recombinant receptor in CHO cells
Readout type: MT1, percent of control-specific binding

[[record]]
compound = "COc1cc(CCN)c(OC)cc1Br [2C-B, reference compound]"
recorded_result = "86%"

[[record]]
compound = "CCOc1c(OC)cc(CCN)cc1OC [escaline]"
recorded_result = "0%"

[[record]]
compound = "COc1cc(CC(C)N)c(OC)cc1Br (stereo not shown) [DOB, reference compound]"
recorded_result = "−3%"

[[record]]
compound = "CNC(C)Cc1ccc2c(c1)OCO2 (stereo not shown) [MDMA, reference compound]"
recorded_result = "1%"


----------
- Experimental system: 5-HT7 receptor (Homo sapiens)
- Construct: host or cells: HEK-293 cells (membrane preparation)
- Sequence (P34969 whole entry): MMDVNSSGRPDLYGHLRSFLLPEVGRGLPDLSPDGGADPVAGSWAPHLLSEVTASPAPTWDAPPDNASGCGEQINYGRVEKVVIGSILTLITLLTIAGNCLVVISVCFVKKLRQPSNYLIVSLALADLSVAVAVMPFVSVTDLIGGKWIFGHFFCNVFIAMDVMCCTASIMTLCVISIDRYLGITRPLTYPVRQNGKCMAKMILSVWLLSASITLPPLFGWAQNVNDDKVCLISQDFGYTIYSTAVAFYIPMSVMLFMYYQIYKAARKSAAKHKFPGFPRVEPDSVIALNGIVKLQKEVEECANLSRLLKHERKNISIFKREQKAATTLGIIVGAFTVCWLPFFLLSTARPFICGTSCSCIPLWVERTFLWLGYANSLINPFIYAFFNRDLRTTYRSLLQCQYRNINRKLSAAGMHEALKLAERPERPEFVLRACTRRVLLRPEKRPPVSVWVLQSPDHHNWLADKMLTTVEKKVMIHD
- Experiment description: Eurofins Cerep competition binding assay at 5-HT7 receptor
- Settings: 10 μM test ligand; [3H]LSD; recombinant receptor in HEK-293 cells
Each entry below carries its reported HT7, percent of control-specific binding.
Readout type: HT7, percent of control-specific binding

[[record]]
compound = "COc1cc(CCN)c(OC)cc1Br [2C-B, reference compound]"
readout_type = "HT7, percent of control-specific binding"
recorded_result = "88%"

[[record]]
compound = "CCOc1c(OC)cc(CCN)cc1OC"
readout_type = "HT7, percent of control-specific binding"
recorded_result = "16%"

[[record]]
compound = "CNC(C)Cc1ccc2c(c1)OCO2 (stereo not shown) [MDMA, reference compound]"
readout_type = "HT7, percent of control-specific binding"
recorded_result = "58%"

[[record]]
compound = "COc1cc(CC(C)N)c(OC)cc1Br (stereo not shown) [DOB, reference compound]"
readout_type = "HT7, percent of control-specific binding"
recorded_result = "65%"


----------
- Experimental system: D3 receptor (Homo sapiens, UniProt P35462)
- Construct: host or cells: CHO cells (membrane preparation)
- Sequence (P35462 whole entry): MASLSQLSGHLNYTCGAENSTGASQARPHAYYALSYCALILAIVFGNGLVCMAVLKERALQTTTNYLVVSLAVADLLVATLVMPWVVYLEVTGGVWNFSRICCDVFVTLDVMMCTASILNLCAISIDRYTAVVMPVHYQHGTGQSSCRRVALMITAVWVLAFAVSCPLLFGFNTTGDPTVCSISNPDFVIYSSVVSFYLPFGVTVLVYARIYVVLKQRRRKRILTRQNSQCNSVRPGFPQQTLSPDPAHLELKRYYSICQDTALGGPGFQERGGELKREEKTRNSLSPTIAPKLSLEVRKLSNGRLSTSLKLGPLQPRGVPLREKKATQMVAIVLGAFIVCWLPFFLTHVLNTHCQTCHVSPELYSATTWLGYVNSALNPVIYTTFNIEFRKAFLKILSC
- Experiment description: Eurofins Cerep competition binding assay at D3 receptor
- Settings: 10 μM test ligand; [3H]methylspiperone; recombinant receptor in CHO cells
Each entry below carries its reported D3, percent of control-specific binding.
Readout type: D3, percent of control-specific binding

[[record]]
compound = "COc1cc(CC(C)N)c(OC)cc1Br (stereo not shown) [DOB, reference compound]"
recorded_result = "25%"

[[record]]
compound = "COc1cc(CCN)c(OC)cc1Br [2C-B, reference compound]"
recorded_result = "43%"

[[record]]
compound = "CNC(C)Cc1ccc2c(c1)OCO2 (stereo not shown) [MDMA, reference compound]"
recorded_result = "18%"

[[record]]
compound = "CCOc1c(OC)cc(CCN)cc1OC"
recorded_result = "0%"


----------
Each entry below carries its reported inhibition at 10 µM.
- Experimental system: MT1 receptor (Homo sapiens, UniProt P48039)
- Construct: host or cells: CHO cells (membrane preparation)
- Sequence (P48039 whole entry): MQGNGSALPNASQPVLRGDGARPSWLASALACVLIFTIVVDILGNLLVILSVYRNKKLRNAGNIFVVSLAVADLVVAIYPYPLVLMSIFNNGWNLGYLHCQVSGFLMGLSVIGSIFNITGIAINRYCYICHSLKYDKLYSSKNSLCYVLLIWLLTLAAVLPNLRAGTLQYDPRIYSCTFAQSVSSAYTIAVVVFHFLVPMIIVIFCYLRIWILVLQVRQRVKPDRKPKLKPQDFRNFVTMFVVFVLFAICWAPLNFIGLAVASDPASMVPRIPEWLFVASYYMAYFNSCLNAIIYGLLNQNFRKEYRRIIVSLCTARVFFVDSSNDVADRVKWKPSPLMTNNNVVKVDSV
- Experiment description: Eurofins Cerep competition binding assay at MT1 receptor
- Settings: read-out: MT1, percent of control-specific binding
Readout type: inhibition at 10 µM (%)

[[record]]
chemical_structure = "O=C(CCc1cc2c(cc1Br)OCO2)N1CCCC1"
experimental_system = "MT1 receptor (Homo sapiens, UniProt P48039)"
readout_type = "inhibition at 10 µM"
recorded_result = 42

[[record]]
chemical_structure = "C/C(=C\\c1ccc2c(c1)OCO2)CN1CCCC1"
experimental_system = "MT1 receptor (Homo sapiens, UniProt P48039)"
readout_type = "inhibition at 10 µM"
recorded_result = 20

[[record]]
chemical_structure = "c1cc2c(cc1CCCN1CCCC1)OCO2"
experimental_system = "MT1 receptor (Homo sapiens, UniProt P48039)"
readout_type = "inhibition at 10 µM"
recorded_result = 3

[[record]]
chemical_structure = "Brc1cc2c(cc1CCCN1CCCC1)OCO2"
experimental_system = "MT1 receptor (Homo sapiens, UniProt P48039)"
readout_type = "inhibition at 10 µM"
recorded_result = 8

[[record]]
chemical_structure = "O=C(CCc1ccc2c(c1)OCO2)N1CCCC1"
experimental_system = "MT1 receptor (Homo sapiens, UniProt P48039)"
readout_type = "inhibition at 10 µM"
recorded_result = 12

[[record]]
chemical_structure = "CCN(CC)C/C=C/c1ccc2c(c1)OCO2"
experimental_system = "MT1 receptor (Homo sapiens, UniProt P48039)"
readout_type = "inhibition at 10 µM"
recorded_result = 10


----------
Each entry below carries its reported HT2B, percent of control-specific binding.
- Experimental system: 5-HT2B receptor (Homo sapiens)
- Construct: host or cells: CHO cells (membrane preparation)
- Sequence (P41595 whole entry): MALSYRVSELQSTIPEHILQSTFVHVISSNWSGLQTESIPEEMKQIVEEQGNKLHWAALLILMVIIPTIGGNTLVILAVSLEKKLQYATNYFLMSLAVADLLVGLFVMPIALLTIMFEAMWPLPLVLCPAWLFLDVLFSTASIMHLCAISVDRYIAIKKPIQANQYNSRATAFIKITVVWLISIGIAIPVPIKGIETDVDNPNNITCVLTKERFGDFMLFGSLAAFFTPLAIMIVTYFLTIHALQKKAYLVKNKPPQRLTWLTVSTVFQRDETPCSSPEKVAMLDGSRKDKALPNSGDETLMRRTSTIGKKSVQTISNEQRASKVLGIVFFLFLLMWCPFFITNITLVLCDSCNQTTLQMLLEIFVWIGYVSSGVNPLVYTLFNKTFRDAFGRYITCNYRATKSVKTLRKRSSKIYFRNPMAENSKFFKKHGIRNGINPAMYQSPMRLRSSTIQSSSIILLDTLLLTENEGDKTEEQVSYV
- Experiment description: Eurofins Cerep competition binding assay at 5-HT2B receptor
- Settings: 10 μM test ligand; [3H]mesulergine; recombinant receptor in CHO cells
Readout type: HT2B, percent of control-specific binding (%)

[[record]]
compound = "COc1cc(CC(C)N)c(OC)cc1Br (stereo not shown) [DOB, reference compound]"
experimental_system = "5-HT2B receptor (Homo sapiens)"
recorded_result = 97

[[record]]
compound = "CCOc1c(OC)cc(CCN)cc1OC"
experimental_system = "5-HT2B receptor (Homo sapiens)"
recorded_result = 81

[[record]]
compound = "COc1cc(CCN)c(OC)cc1Br [2C-B, reference compound]"
experimental_system = "5-HT2B receptor (Homo sapiens)"
recorded_result = 99

[[record]]
compound = "CNC(C)Cc1ccc2c(c1)OCO2 (stereo not shown) [MDMA, reference compound]"
experimental_system = "5-HT2B receptor (Homo sapiens)"
recorded_result = 85


----------
Each entry below carries its reported DAT, percent of control-specific binding.
- Experimental system: dopamine transporter (DAT) (Homo sapiens)
- Construct: host or cells: CHO cells (membrane preparation)
- Sequence (Q01959 whole entry): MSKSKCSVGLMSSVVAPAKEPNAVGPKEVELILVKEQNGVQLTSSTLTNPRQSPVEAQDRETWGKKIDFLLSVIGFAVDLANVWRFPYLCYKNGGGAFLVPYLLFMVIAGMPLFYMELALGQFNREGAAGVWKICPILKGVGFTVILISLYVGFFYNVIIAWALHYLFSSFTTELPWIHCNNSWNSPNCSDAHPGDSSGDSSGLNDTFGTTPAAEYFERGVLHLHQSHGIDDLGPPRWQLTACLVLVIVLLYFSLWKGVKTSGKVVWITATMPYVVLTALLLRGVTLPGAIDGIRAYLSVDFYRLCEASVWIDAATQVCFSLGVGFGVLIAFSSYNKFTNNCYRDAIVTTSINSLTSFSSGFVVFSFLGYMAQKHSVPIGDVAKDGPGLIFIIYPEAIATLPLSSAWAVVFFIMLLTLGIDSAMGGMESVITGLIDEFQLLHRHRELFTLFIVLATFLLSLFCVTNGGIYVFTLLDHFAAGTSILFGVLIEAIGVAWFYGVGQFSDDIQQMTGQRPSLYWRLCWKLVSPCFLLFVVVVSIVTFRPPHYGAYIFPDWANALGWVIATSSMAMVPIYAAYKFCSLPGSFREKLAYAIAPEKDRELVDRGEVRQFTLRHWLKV
- Experiment description: Eurofins Cerep competition binding assay at dopamine transporter
- Settings: 10 μM test ligand; [3H]BTCP; recombinant transporter in CHO cells
Readout type: DAT, percent of control-specific binding (%)

[[record]]
compound = "COc1cc(CC(C)N)c(OC)cc1Br (stereo not shown) [DOB, reference compound]"
experimental_system = "dopamine transporter (DAT) (Homo sapiens)"
readout_type = "DAT, percent of control-specific binding"
recorded_result = 3

[[record]]
compound = "CNC(C)Cc1ccc2c(c1)OCO2 (stereo not shown) [MDMA, reference compound]"
experimental_system = "dopamine transporter (DAT) (Homo sapiens)"
readout_type = "DAT, percent of control-specific binding"
recorded_result = 28

[[record]]
compound = "CCOc1c(OC)cc(CCN)cc1OC"
experimental_system = "dopamine transporter (DAT) (Homo sapiens)"
readout_type = "DAT, percent of control-specific binding"
recorded_result = 0

[[record]]
compound = "COc1cc(CCN)c(OC)cc1Br [2C-B, reference compound]"
experimental_system = "dopamine transporter (DAT) (Homo sapiens)"
readout_type = "DAT, percent of control-specific binding"
recorded_result = 5

